Value source: patent US20210115124A1

Kindly supply the reported kon values for the records listed here.
Biological target: T1, human VEGF (hVEGF) (human, UniProt P15692 181-395)
T1 construct: also called VEGF-A
T1 sequence: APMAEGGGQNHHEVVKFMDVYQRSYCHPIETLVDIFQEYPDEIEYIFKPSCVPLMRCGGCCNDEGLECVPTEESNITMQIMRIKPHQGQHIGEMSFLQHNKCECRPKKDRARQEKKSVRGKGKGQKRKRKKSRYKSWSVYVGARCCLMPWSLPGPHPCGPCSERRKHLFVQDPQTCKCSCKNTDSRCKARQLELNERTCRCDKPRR
Assay: SPR single-cycle;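 further: fab variants injected over hVEGF immobilized on a CM5 chip (Biacore T200), threefold dilution series from 0.02 to 50 nM, kinetics fitted with a 1:1 Langmuir model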
Could you give me the number in M⁻¹ s⁻¹? Just the number is fine.

Name the reported kon value associated with the binder G6.31 LC-G57E (Fab, V domains shown, Fab) VH: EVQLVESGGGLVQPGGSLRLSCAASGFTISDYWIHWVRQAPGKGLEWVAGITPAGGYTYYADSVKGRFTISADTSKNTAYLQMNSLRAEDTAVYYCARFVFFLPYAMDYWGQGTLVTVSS VL: DIQMTQSPSSLSASVGDRVTITCRASQDVSTAVAWYQQKPGKAPKLLIYSASFLYSEVPSRFSGSGSGTDFTLTISSLQPEDFATYYCQQGYGNPFTFGQGTKVEIK
429000

Value lookup for kon; key = G6.31 HC-T68K (Fab, name in Kabat numbering, V domains shown, Fab) VH: EVQLVESGGGLVQPGGSLRLSCAASGFTISDYWIHWVRQAPGKGLEWVAGITPAGGYTYYADSVKGRFKISADTSKNTAYLQMNSLRAEDTAVYYCARFVFFLPYAMDYWGQGTLVTVSS VL: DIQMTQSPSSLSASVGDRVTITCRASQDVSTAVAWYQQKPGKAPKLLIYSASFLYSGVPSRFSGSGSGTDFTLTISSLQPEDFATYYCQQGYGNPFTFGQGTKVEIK
397000

What kon value was documented for this binder, G6.31 HC-T77E (Fab, name in Kabat numbering, V domains shown, Fab) VH: EVQLVESGGGLVQPGGSLRLSCAASGFTISDYWIHWVRQAPGKGLEWVAGITPAGGYTYYADSVKGRFTISADTSKNEAYLQMNSLRAEDTAVYYCARFVFFLPYAMDYWGQGTLVTVSS VL: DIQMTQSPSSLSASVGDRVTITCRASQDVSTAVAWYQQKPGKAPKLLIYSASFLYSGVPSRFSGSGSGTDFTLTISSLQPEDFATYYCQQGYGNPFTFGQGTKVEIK ?
248000

Item under review: G6.31 HC-A71E (Fab, name in Kabat numbering, V domains shown, Fab) VH: EVQLVESGGGLVQPGGSLRLSCAASGFTISDYWIHWVRQAPGKGLEWVAGITPAGGYTYYADSVKGRFTISEDTSKNTAYLQMNSLRAEDTAVYYCARFVFFLPYAMDYWGQGTLVTVSS VL: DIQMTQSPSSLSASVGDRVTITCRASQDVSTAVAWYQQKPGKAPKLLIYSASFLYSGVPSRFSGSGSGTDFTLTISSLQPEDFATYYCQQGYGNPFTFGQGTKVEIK . Reported kon?
257000

// lookup kon for G6.31 HC-S30E (Fab, name in Kabat numbering, V domains shown, Fab) VH: EVQLVESGGGLVQPGGSLRLSCAASGFTIEDYWIHWVRQAPGKGLEWVAGITPAGGYTYYADSVKGRFTISADTSKNTAYLQMNSLRAEDTAVYYCARFVFFLPYAMDYWGQGTLVTVSS VL: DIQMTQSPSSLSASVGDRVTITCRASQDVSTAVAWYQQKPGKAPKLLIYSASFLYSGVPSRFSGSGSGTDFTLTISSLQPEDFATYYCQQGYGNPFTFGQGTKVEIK
78500
